# target-or-system: SARS-CoV-2 Main Protease (SARS-CoV-2)
pIC50: −log10 of the molar value.
Threshold check on pIC50: at or above 5 gives class 1, strictly below gives class 0.

Some entries whose results are on file:
>>> print(df.to_string())
                                   compound  label_value
0  O=C(NCCc1cccc(F)c1)C(c1cccnc1)N(C(=O)c1cnc[nH]1)C1CCCC2(CCC2)C1 (centres undefined)      class 0
1  CCOC(=O)c1c(COc2cc(Cl)cc(CC(=O)Nc3cnccc3C)c2)oc2ccccc12      class 0
2  O=C(NCc1nnc2c(=O)[nH]ccn12)c1ccnc2ccnn12      class 0
3  Cc1ccncc1NC(=O)Cc1cc(Cl)cc(OCc2cc(-c3ccc(Cl)cc3)no2)c1      class 0
4  O=C(COC(=O)C1(c2ccccc2)CCC1)c1c[nH]c2ccccc12      class 0

Ask: Given Cc1cccc(NC(=O)[C@@H](c2ccccc2)N2Cc3ccccc3C2=O)n1 (stereo in doubt) , state whether its pIC50 is at least 5.
Result: class 0

Ask: Given CC(NCc1c[nH]c2nccnc12)c1cc(F)ccc1N1CCC(O)CC1 (centres undefined) , state whether its pIC50 is at least 5.
Result: class 0

Ask: Given Nc1nn(C(=O)Cc2cccc(Cl)c2)c2cc(F)ccc12 , state whether its pIC50 is at least 5.
Result: class 0

----------
# target-or-system: SARS-CoV-2 Main Protease (SARS-CoV-2) (UniProt P0DTD1)
Hi! Could you tag entries with IC50 below 40 µM as t, and those at or above as f? Much appreciated.

Some entries whose results are on file:
In [3]: df
Out[3]:
                                   compound                          target_or_system  label_value
0  Cc1cc(Br)c(Nc2cc(Cl)cc(CC(=O)Nc3cncc4ccccc34)c2)c([N+](=O)[O-])c1  SARS-CoV-2 Main Protease (SARS-CoV-2) (UniProt P0DTD1)            t
1  CCOC(=O)/C=C/N1CCN(S(=O)(=O)c2ccccc2)CC1  SARS-CoV-2 Main Protease (SARS-CoV-2) (UniProt P0DTD1)            t
2  O=C(Cc1cc(Cl)cc(Nc2nc(-c3ccc(Cl)c(Cl)c3)cs2)c1)Nc1cncc2ccccc12  SARS-CoV-2 Main Protease (SARS-CoV-2) (UniProt P0DTD1)            t
3  O=C(Cc1cc(Cl)cc(Nc2cc(Cl)nc(Cl)n2)c1)Nc1cncc2ccccc12  SARS-CoV-2 Main Protease (SARS-CoV-2) (UniProt P0DTD1)            t
4  NS(=O)(=O)C1Cc2ccccc2N(CCNS(=O)(=O)c2ccccc2)C1 (centres undefined)  SARS-CoV-2 Main Protease (SARS-CoV-2) (UniProt P0DTD1)            f

Now turn to the next compound.
Ask: Please let me know if Cc1ccncc1NC(=O)Cc1cccc(-c2cn[nH]c2)c1 shows IC50 below 40 µM.
Result: f

----------
# target-or-system: SARS-CoV-2 Main Protease (SARS-CoV-2) (UniProt P0DTD1)
value-kind: IC50

Completed entries (count: 2):
>>> df
                                   molecule                          target_or_system  value_kind  meas_value
0  O=S(=O)(Nc1cc2c(cc1OCc1ccccc1)OCO2)c1ccccc1  SARS-CoV-2 Main Protease (SARS-CoV-2) (UniProt P0DTD1)        IC50   > 99.5 µM
1  C=CC(=O)Nc1ccc(O)c(C(=O)NC[C@@H](O)c2ccc3ccccc3c2)c1 (stereo in doubt)  SARS-CoV-2 Main Protease (SARS-CoV-2) (UniProt P0DTD1)        IC50   > 99.5 µM

Consider now this further molecule.
Ask: Hello, I am looking for reported IC50 with SARS-CoV-2 Main Protease (SARS-CoV-2) (UniProt P0DTD1) for Cc1ccncc1NC(=O)Nc1cccc(C#N)c1 . Could you help?
Result: > 99 µM
